Quick list: ID50 (mg/kg)/ ED50 (mg/kg) per entry.
Target: cerebral H1 receptor (Mus musculus, UniProt P70174)
Construct: the entire brain, except for cerebellum and medulla oblongatae, was rapidly excised; from tissue; host or cells: brain homogenate (without cerebellum and medulla oblongata) of orally dosed ICR male mice
Sequence (P70174 whole entry): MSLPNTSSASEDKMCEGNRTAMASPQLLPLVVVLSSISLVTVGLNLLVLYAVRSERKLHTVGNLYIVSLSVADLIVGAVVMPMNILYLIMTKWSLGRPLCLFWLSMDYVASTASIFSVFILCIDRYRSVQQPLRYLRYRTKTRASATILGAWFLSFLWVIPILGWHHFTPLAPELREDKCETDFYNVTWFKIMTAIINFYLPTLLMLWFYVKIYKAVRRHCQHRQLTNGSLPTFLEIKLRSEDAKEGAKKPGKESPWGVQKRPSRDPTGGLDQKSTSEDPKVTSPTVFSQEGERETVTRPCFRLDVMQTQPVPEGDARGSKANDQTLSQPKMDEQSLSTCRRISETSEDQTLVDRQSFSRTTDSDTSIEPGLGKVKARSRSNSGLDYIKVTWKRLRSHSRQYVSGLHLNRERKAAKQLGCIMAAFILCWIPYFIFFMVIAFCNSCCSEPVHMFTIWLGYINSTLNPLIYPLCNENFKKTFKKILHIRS
Test: Murine cerebral H1 receptor occupying content (ex vivo)
Format: in vivo
Conditions: ID50 of cerebral receptor binding test (Table 20) divided by ED50 of vascular hyperpermeability test (Table 19)

Solved entries (count: 3):
CC(C)(C(=O)O)c1cc2c(s1)CCc1ccccc1C2=C1CCNCC1.Cl [Compound 153]	>76.6
CN1CCC(=C2c3cc(CC(=O)O)ccc3CCc3sccc32)CC1 [Compound 151]	>63.6
CCOC(=O)C=Cc1cc2c(s1)CCc1ccccc1C2=C1CCNCC1.Cl [Compound 145]	>689.7

Okay, next one:
Lookup result for CCCOC(=O)Cc1ccc2c(c1)C(=C1CCNCC1)c1sccc1CO2.Cl [Compound 137] ; measured ID50 (mg/kg)/ ED50 (mg/kg): >833.3
